# Study system: 11β-HSD2 (Homo sapiens, UniProt P80365)
# Sequence (P80365 whole entry): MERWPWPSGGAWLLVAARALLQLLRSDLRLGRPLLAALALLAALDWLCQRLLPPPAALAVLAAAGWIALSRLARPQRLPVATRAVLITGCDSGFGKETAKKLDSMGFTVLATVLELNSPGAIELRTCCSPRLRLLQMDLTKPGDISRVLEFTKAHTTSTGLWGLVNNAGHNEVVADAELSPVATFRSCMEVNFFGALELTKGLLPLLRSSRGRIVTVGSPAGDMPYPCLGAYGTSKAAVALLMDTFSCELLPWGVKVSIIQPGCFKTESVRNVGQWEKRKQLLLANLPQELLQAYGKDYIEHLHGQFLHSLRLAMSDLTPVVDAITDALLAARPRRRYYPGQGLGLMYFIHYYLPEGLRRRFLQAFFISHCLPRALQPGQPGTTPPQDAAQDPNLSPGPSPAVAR
# Assay info: 11β-HSD2 activity in lysates of stably transfected HEK-293 cells
# Condition parameters: cell lysate
Quantity kind: pIC50
// pIC50 is dimensionless: -log10 of concentration (M)

INSERT INTO assay_data (compound, study_system, quantity_kind, observed) VALUES
  ('CON[C@H]1CC[C@@]2(C)C(CC[C@]3(C)C2C(=O)C=C2C4C[C@@](C)(C(=O)N(C)O)CC[C@]4(C)CC[C@]23C)C1(C)C (some centres unmarked) [Compound 10]', '11β-HSD2 (Homo sapiens, UniProt P80365)', 'pIC50', 6.26);

In: Notebook entry, 11β-HSD2 (Homo sapiens, UniProt P80365) assay: pIC50 of CONC(=O)[C@@]1(C)CC[C@]2(C)CC[C@]3(C)C(=CC(=O)C4[C@@]5(C)CC[C@H](O)C(C)(C)C5CC[C@]43C)C2C1 (some centres unmarked) [Compound 16] = ?
Out: 5.67
